Protocol: compound effects on differentiated 3T3-L1 adipocyte viability – cell-based, 3T3-L1 adipocytes, calcein-AM fluorescence, 48 h, basal, profiling panel (AID 1163)
Test Parameters: 3T3-L1 adipocytes viability, higher = more signal
Quantity Name: z-score

Observe how each entry below is paired with its result.
CCCNC(=O)[C@@]1(C)c2ccccc2C(=O)N(Cc2cc(C(F)(F)F)cc(C(F)(F)F)c2)[C@H]1c1ccc(CO)cc1; 0.531
COc1ccc([Si](C)(C)[C@H]2[C@H](CCO)O[C@@]3(C(=O)N(Cc4cccc(N5C(=O)c6cccc7cccc5c67)c4)c4ccccc43)[C@@H]2C)cc1; 0.894
CCOC(=O)C1=C[C@@H](C(C)(C)C)N(S(=O)(=O)c2ccc(C)cc2)[C@H]1c1ccc(Cl)c(Cl)c1; -0.257

Here is another compound to look at.
Requested field: z-score. Item: C[N+](C)(C)CCCCNC(=O)[C@H]1C[C@H]2C(=O)N3CCC[C@H]3C(=O)N2[C@H]1c1ccc(O)cc1
0.0179

###

Test system: XIP peptide (Xip251-270)
Protocol: compounds binding XIP fragment 251-270 – biochemical, small-molecule microarray, fluorescence 635/667 nm, 0.5 µg/mL protein, primary screen (AID 1183)
Test Parameters: fluorescence 635 nm, higher = more signal
Quantity Name: composite z-score
Give the figure only, with no unit attached.

# composite z-score lookup, item CCOC(=O)C1=CC[C@@H](c2cccc(Cl)c2)N(S(=O)(=O)c2ccc(C)cc2)[C@H]1c1ccc(C#N)cc1
0.73

Sample [N-]=[N+]=NCc1ccccc1C[C@]1(C(=O)NCc2ccccc2)COC(c2ccc(OCCCO)cc2)=N1 — what was its composite z-score?
0.689

I have this compound here, C=CCC(OC(C)=O)[C@@H]1[C@@H](N(Cc2cc3ccccc3o2)C(=O)c2cccc3ccccc23)c2cc(OCCCO)ccc2N1C(=O)Cc1ccc(OC)cc1 (stereo not given in full) , and I need its recorded composite z-score.
-0.208

Suppose we examine the compound C=CCC(OC(C)=O)[C@@H]1[C@@H](N(Cc2cc3ccccc3o2)C(=O)c2ccc(-c3ccccc3)cc2)c2cc(OCCCO)ccc2N1C(=O)Cc1ccc2ccccc2c1 (stereo not given in full) ; what composite z-score value has been reported?
-0.269

Consider the compound shown here: CC(=O)NCCCC[C@@H]1NC(=O)[C@@H]2C[C@H](C(=O)NCc3ccc(F)cc3)[C@H](c3ccc(O)cc3)N2C1=O What is its recorded composite z-score?
1.01

# get_value(readout='composite z-score', item= C#C[C@H]1Oc2ccccc2S(=O)(=O)N2CCC[C@@H]12 )
-0.286

Can you look up the measured composite z-score of CC(C)(C)OC(=O)CC[C@]1(C(=O)NCC(O)CO)N=C(c2ccc(OCCCO)cc2)O[C@H]1c1ccccc1CN=[N+]=[N-] (stereo not given in full) for me?
0.878

# composite z-score lookup, item O=C1O[C@H](c2ccccc2)[C@H](c2ccccc2)N2[C@H]1[C@@H](C(=O)N1CCCCCCC1)[C@]1(C(=O)Nc3ccc(C#CC4=CCCCC4)cc31)[C@H]2c1ccc(O)cc1
1

Record request: composite z-score value, item COCCOC(=O)N1C(=O)[C@@]2(c3ccccc31)[C@H](c1ccc(O)cc1)N1[C@H](c3ccccc3)[C@H](c3ccccc3)OC(=O)[C@H]1[C@@H]2C(N)=O
-0.0106

State the recorded composite z-score for this entry: C=CCOC(=O)[C@@H]1[C@H]2C(=O)O[C@H](c3ccccc3)[C@H](c3ccccc3)N2[C@H](c2ccc(OCCOC(=O)[C@H]3C[C@H]4C(=O)N[C@@H](CC(C)C)C(=O)N4[C@H]3c3cccc(OCCO)c3)cc2)[C@@]12C(=O)Nc1ccc(I)cc12
0.824

Requested read-out: composite z-score. Entry: CCN(CC)c1ccc(N2CC=CC34O[C@@H]5/C=C\CCCOC(=O)C5[C@H]3C(=O)N(CCCO)[C@@H]4C2=O)cc1 (stereo not given in full)
0.828

# composite z-score lookup, item COCCOC(=O)N1C(=O)[C@@]2(c3cc(C#Cc4ccc(OC)cc4)ccc31)[C@H](c1ccc(O)cc1)N1[C@H](c3ccccc3)[C@H](c3ccccc3)OC(=O)[C@H]1[C@@H]2C(=O)N1CCN(c2ncccn2)CC1
0.596

Which composite z-score is reported for this compound? C=CC[C@@]1(C(=O)NCCN2CCOCC2)N=C(c2ccc(OCCCO)cc2)O[C@@H]1c1ccccc1CN=[N+]=[N-]
0.818

Report composite z-score for COCCOC(=O)N1C(=O)[C@@]2(c3cc(C#Cc4ccc(OC)cc4)ccc31)[C@H](c1ccc(OCCO)cc1)N1[C@H](c3ccccc3)[C@H](c3ccccc3)OC(=O)[C@H]1[C@@H]2C(=O)N1CCc2cc(OC)c(OC)cc2C1 please.
0.592

###

Test system: XIP peptide (Xip251-270) binding
Protocol: XIP fragment 251-270 binding compounds – biochemical, small-molecule microarray, fluorescence 635/667 nm, 0.1 µg/mL protein, primary screen (AID 1182)
Test Parameters: fluorescent protein binding, 635 nm, higher = more signal, called active from +8 up or from −8 down
Active and inactive are the calls of the source.
Below: a set of entries, each annotated with reported composite z-score.

Some entries whose results are on file:
C=CCOC(=O)[C@@H]1[C@H]2C(=O)O[C@H](c3ccccc3)[C@H](c3ccccc3)N2[C@H](c2ccc(OCCOC(=O)[C@H]3C[C@H]4C(=O)N[C@@H](CC(C)C)C(=O)N4[C@H]3c3cccc(OCCO)c3)cc2)[C@@]12C(=O)Nc1ccc(I)cc12; 0.559 (inactive)
COCCOC(=O)N1C(=O)[C@@]2(c3ccccc31)[C@H](c1ccc(O)cc1)N1[C@H](c3ccccc3)[C@H](c3ccccc3)OC(=O)[C@H]1[C@@H]2C(N)=O; -0.728 (inactive)
CO[C@H]1O[C@H](CO)[C@@H](OC(=O)Nc2ccccc2-c2ccccc2)[C@H](OC(=O)Nc2ccccc2-c2ccccc2)[C@H]1OC(=O)Nc1ccccc1-c1ccccc1; 0.0163 (inactive)
CC1(C)C(=O)C(c2ccccc2)=C2CN3C(=O)N(CCc4ccccc4)C(=O)C3(Cc3ccccc3)C=C21 (stereo unspecified); 1.7 (inactive)
C=CC[C@]1(C(=O)O)N=C(c2ccc(OCCCO)cc2)O[C@H]1c1ccccc1CN=[N+]=[N-]; 1 (inactive)

Next, consider the following compound.
Which value of composite z-score has been reported for CC(C)(C)OC(=O)CC[C@@]1(C(=O)N2CCOCC2)N=C(c2ccc(OCCCO)cc2)O[C@@H]1c1ccccc1N=[N+]=[N-] in the records?
0.14 (inactive)

###

Protocol: probe aNog binding to arrayed compounds – biochemical, biotinylated probe, 635/667 nm fluorescence, primary screen (AID 1115);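 note: probe is biotinylated aNog protein used at 0.15 µg/mL for 1 h at 4 C; z-score combines 667 nm fluorescence of each spot with its signal to noise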
Test Parameters: small-molecule microarray, higher = more signal
Catalogue of composite z-score values

COCCOC(=O)N1C(=O)[C@@]2(c3cc(C#Cc4ccc(OC)cc4)ccc31)[C@H](c1ccc(OCCO)cc1)N1[C@H](c3ccccc3)[C@H](c3ccccc3)OC(=O)[C@H]1[C@@H]2C(=O)N1CCc2cc(OC)c(OC)cc2C1; -0.0602

May I ask what composite z-score has been recorded for CCCC[C@H]1OB(O)C[C@H]2C1=C(C)Cn1c(=O)n(-c3ccccc3)c(=O)n12 ?
-0.426

Any idea what composite z-score was measured for Cc1ccc(S[C@]2(C(=O)NCCCN(C)C)CC(=O)N(Cc3ccccc3)[C@@H]2c2ccc(CO)cc2)cc1 ?
0.604

###

Protocol: compound effects on differentiated 3T3-L1 adipocyte viability – cell-based, 3T3-L1 adipocytes, calcein-AM fluorescence, 48 h, basal, profiling panel (AID 1163)
Test Parameters: 3T3-L1 adipocytes viability, higher = more signal
Measured z-score of individual entries
Respond with the number and no other words.

Look over these answered cases.
COCC1C2CC[C@H]3C(OCc4ccc(F)cc4C(F)(F)F)OC[C@]4(C)[C@H]3C2=C(CN4C(=O)OC(C)(C)C)[C@H](C)C1COC (some centres undefined); -0.511
COc1ccc([Si](C)(C)[C@@H]2[C@@H](CCO)O[C@]3(C(=O)N(Cc4cccc(N5CCCCC5=O)c4)c4ccccc43)[C@H]2C)cc1; 0.161
C=CC[C@]1(C(=O)O)N=C(c2ccc(OCCCO)cc2)O[C@H]1c1ccccc1CN=[N+]=[N-]; -1.06
CCN(CC)c1ccc(N2CC=CC34O[C@@H]5C=CCCOC(=O)C5[C@H]3C(=O)N(CCCO)[C@@H]4C2=O)cc1 (some centres undefined); 0.848
O=C1O[C@@H](c2ccccc2)[C@@H](c2ccccc2)N2[C@@H](c3ccc(O)cc3)[C@]3(C(=O)Nc4ccc(C#CCCO)cc43)[C@@H](C(=O)O)[C@H]12; 0.352

Dear colleague, I am looking for the recorded z-score of the following compound: CC(C)C(CO)N1C(=O)[C@@H]2[C@H]3C(=O)OCC=C[C@H]3OC23C=CCN(c2ccc4ccccc4c2)C(=O)[C@@H]13 (some centres undefined)
0.126

Can you share its z-score? I mean this compound: C=CC[C@@]1(C(N)=O)N=C(c2ccc(OCCCO)cc2)O[C@@H]1c1ccccc1N=[N+]=[N-]
1.01

# lookup: z-score of CN1C(=O)C2C=CC(C(O)C(C)(C)C)N(Nc3ccccc3)C2C1=O (centres undefined)
-1.31

// returns reported z-score for input NC(=O)NCC#Cc1ccc2c(c1)[C@]1(C(=O)N2)[C@H](C(=O)NC[C@H](O)c2ccccc2)[C@H]2C(=O)O[C@H](c3ccccc3)[C@H](c3ccccc3)N2[C@@H]1c1ccccc1OCCO
1.02

Which z-score reading was recorded for the compound [N-]=[N+]=NCc1ccccc1C[C@]1(C(=O)NCC(O)CO)COC(c2ccc(OCCCO)cc2)=N1 (some centres undefined) ?
-0.314

Find the recorded z-score belonging to C=CC[C@@]1(C(=O)OC)N=C(c2ccc(OCCCO)cc2)O[C@@H]1c1ccccc1CN=[N+]=[N-] and report it.
0.358

# z-score lookup, item C=CCOC(=O)[C@H]1[C@@H]2C(=O)O[C@@H](c3ccccc3)[C@@H](c3ccccc3)N2[C@@H](c2ccc(OCCOC(=O)[C@H]3C[C@H]4C(=O)N[C@@H](CCCC[N+](C)(C)C)C(=O)N4[C@H]3c3ccc(O)cc3)cc2)[C@]12C(=O)Nc1ccccc12
0.6

What z-score value was documented for this compound, CC(C)C(=C=CC[C@H](O)c1ccccc1OCCO)CCO ?
-1.06

Could you share which z-score value was measured for C=C(CCCC)/C(=C/C[C@H](OC(C)=O)c1ccc(CO)o1)c1cc(C(=O)OC)ccc1OC ?
1.03
